Provide the reported pKd of each item.
- targetDesc: gp41 MPER peptide (residues 657 to 669 of gp41 linked to a C-terminal C9 tag)
- assayNotes: SPR
By convention, pKd is the negative base-10 log of a molar concentration.

Exam item: Any idea what its pKd is? The binder is 2F5 F100BW (antibody, V domains shown) VH: RITLKESGPPLVKPTQTLTLTCSFSGFSLSDFGVGVGWIRQPPGKALEWLAIIYSDDDKRYSPSLNTRLTITKDTSKNQVVLVMTRVSPVDTATYFCAHRRGPTTLWGVPIARGPVNAMDVWGQGITVTISS VL: ALQLTQSPSSLSASVGDRITITCRASQGVTSALAWYRQKPGSPPQLLIYDASSLESGVPSRFSGSGSGTEFTLTISTLRPEDFATYYCQQLHFYPHTFGGGTRVDVRR
Marked response: 7.95

Exam item: Looking for the measured pKd of 2F5 L100AS-V100DS (antibody, V domains shown) VH: RITLKESGPPLVKPTQTLTLTCSFSGFSLSDFGVGVGWIRQPPGKALEWLAIIYSDDDKRYSPSLNTRLTITKDTSKNQVVLVMTRVSPVDTATYFCAHRRGPTTSFGSPIARGPVNAMDVWGQGITVTISS VL: ALQLTQSPSSLSASVGDRITITCRASQGVTSALAWYRQKPGSPPQLLIYDASSLESGVPSRFSGSGSGTEFTLTISTLRPEDFATYYCQQLHFYPHTFGGGTRVDVRR , can you help?
Marked response: 7.44

Exam item: For 2F5 F100BS-I100FS (antibody, V domains shown) VH: RITLKESGPPLVKPTQTLTLTCSFSGFSLSDFGVGVGWIRQPPGKALEWLAIIYSDDDKRYSPSLNTRLTITKDTSKNQVVLVMTRVSPVDTATYFCAHRRGPTTLSGVPSARGPVNAMDVWGQGITVTISS VL: ALQLTQSPSSLSASVGDRITITCRASQGVTSALAWYRQKPGSPPQLLIYDASSLESGVPSRFSGSGSGTEFTLTISTLRPEDFATYYCQQLHFYPHTFGGGTRVDVRR , what is its reported pKd?
Marked response: 7.33

Sourced from patent US20120244166A1
